Biological target: UniProtKB P34913
Sequence (P34913 whole entry): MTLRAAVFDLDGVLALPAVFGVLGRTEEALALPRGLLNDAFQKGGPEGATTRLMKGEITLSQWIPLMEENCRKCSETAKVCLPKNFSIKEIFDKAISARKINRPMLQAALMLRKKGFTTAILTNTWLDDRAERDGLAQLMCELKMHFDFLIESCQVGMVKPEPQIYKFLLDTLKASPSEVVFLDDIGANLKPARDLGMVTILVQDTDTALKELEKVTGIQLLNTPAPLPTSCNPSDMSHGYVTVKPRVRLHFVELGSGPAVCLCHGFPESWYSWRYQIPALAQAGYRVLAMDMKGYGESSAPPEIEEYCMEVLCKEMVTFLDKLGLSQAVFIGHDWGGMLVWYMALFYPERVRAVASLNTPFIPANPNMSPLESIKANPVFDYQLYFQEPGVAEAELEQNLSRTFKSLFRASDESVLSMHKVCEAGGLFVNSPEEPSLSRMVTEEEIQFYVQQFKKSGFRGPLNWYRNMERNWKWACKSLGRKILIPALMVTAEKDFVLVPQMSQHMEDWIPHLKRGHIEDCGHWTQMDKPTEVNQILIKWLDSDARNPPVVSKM
Experiment: sEH fluorescent inhibition assay
Assay type: biochemical
REPORTED_PROPERTY: IC50 (µM)

>>> endpoint_value("O=C(Nc1cccnc1)N1CCC(Cc2cccc(Oc3ccc(C(F)(F)F)cn3)c2)CC1 [PF-3845, reference compound]")
12

---

Items are presented alongside their recorded pIC50.
Target: rat FAAH (Rattus norvegicus)
Sequence (P97612 1-579): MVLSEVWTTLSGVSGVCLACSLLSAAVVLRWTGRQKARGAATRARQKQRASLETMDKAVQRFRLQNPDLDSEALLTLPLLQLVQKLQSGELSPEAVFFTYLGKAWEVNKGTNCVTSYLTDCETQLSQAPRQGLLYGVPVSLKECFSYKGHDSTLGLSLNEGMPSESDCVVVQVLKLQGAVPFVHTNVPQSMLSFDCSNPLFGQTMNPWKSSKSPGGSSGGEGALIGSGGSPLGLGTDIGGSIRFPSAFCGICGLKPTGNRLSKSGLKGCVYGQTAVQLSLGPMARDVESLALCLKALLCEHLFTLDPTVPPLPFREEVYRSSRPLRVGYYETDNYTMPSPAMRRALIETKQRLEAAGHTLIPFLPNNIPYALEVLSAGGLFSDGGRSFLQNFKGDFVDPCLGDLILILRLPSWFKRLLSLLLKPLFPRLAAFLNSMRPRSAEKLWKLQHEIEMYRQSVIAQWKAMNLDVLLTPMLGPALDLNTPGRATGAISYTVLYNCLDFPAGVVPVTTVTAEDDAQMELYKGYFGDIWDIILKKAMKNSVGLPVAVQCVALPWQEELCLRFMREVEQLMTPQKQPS
Assay: FAAH fluorescent inhibition assay, rat brain microsomes
Assay type: biochemical
Conditions: FAAH IC50 (5 min pre-incubation), 5 min pre-incubation
pIC50: −log10 of the molar value.
REPORTED_PROPERTY: pIC50

>>> endpoint_value("O=C(Nc1ccc(C(F)(F)F)cc1)N1CCC(Cc2cccc(Oc3ccc(C(F)(F)F)cn3)c2)CC1")
"< 5.00"
>>> endpoint_value("O=C(Nc1ccc(C(F)(F)F)cc1F)N1CCC(Cc2cccc(Oc3ccc(C(F)(F)F)cn3)c2)CC1")
"< 5.00"

---

Assay: Cassette dosing pharmacokinetics in mice
Assay type: in vivo
Conditions: male, Swiss Webster, mouse, whole blood, po, 1 mg/kg
REPORTED_PROPERTY: Cmax (nM)

>>> endpoint_value("O=C(Nc1ccc(C(F)(F)F)cc1F)N1CCC(Cc2cccc(Oc3ccc(C(F)(F)F)cn3)c2)CC1 [compound 18]")
37
>>> endpoint_value("O=C(Nc1ccc(C(F)(F)F)cc1)N1CCC(Cc2cccc(Oc3ccc(C(F)(F)F)cn3)c2)CC1 [compound 13]")
65

---

Target: human CES2 (Homo sapiens, UniProt O00748)
Sequence (O00748 27-559): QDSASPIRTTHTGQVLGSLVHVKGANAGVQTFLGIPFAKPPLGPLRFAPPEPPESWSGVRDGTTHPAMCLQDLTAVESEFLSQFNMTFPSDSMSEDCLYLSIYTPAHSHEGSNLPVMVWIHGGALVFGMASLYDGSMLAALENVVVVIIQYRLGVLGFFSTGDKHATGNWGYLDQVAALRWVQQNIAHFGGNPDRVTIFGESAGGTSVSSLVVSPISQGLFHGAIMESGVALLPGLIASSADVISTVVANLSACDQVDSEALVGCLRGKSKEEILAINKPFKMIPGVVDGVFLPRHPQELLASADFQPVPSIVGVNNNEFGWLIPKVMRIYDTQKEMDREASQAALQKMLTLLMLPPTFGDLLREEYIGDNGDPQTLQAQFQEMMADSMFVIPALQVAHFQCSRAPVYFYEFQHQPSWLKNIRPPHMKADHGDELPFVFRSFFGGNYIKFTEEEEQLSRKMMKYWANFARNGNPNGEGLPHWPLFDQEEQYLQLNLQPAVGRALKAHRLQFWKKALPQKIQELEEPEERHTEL
REPORTED_PROPERTY: IC50 (nM)

>>> endpoint_value("O=C(Nc1cccnc1)N1CCC(Cc2cccc(Oc3ccc(C(F)(F)F)cn3)c2)CC1 [PF-3845, reference compound]")
1100

---

Target: mouse FAAH (Mus musculus, UniProt O08914)
Sequence (O08914 whole entry): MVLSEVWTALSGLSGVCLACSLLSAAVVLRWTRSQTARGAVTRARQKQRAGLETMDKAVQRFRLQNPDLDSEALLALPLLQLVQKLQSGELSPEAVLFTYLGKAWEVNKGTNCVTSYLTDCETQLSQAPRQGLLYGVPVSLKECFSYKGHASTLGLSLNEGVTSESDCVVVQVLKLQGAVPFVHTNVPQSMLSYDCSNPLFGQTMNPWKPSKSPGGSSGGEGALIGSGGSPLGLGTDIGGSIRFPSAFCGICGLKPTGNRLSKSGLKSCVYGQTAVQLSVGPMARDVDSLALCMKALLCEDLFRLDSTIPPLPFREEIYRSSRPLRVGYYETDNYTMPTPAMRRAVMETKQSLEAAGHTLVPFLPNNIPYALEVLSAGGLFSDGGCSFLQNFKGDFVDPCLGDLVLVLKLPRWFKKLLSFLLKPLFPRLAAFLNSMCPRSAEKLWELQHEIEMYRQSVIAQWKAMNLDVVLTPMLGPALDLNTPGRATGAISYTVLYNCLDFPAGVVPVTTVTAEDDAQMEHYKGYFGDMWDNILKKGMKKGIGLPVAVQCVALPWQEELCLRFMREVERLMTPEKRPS
Assay: FAAH fluorescent inhibition assay, mouse crude tissue homogenate
Format: biochemical
Settings: FAAH IC50 (5 min pre-incubation)
REPORTED_PROPERTY: IC50

>>> endpoint_value("O=C(Nc1ccc(C(F)(F)F)cc1)N1CCC(Cc2cccc(Oc3ccc(C(F)(F)F)cn3)c2)CC1 [compound 13]")
"> 10 µM"
>>> endpoint_value("O=C(Nc1ccc(C(F)(F)F)cc1F)N1CCC(Cc2cccc(Oc3ccc(C(F)(F)F)cn3)c2)CC1 [compound 18]")
"> 10 µM"
